Reported Patients Proportion (%) responding is given for each of the following sequences.
System: PBMCs (T cells)
assay procedure: 10-day IFN-γ ELIspot for low-frequency T cells
Type: cell-based, human
protocol conditions: breast and ovarian cancer patients; 10 μg/mL polypeptide; positive = p<0.05 vs no antigen and >1:100,000
Give a bare numeral; the unit % is implied.

Returns the measured Patients Proportion (%) responding for the input sequence. Input: CKSNWHKGWNWTSGFN (listed as Homo sapiens) [FR152]
23

Bench note: what Patients Proportion (%) responding did KDVSYLYRFNWNHCGEMA (listed as Homo sapiens) [FR76] show?
13

---

System: PBMCs (T cells)
assay procedure: 10-day IFN-γ ELIspot for low-frequency T cells
Assay type: cell-based, human
protocol conditions: breast and ovarian cancer patients; 10 μg/mL polypeptide; positive = p<0.05 vs no antigen and >1:100,000
experimental readout: Patients Proportion (%) responding
# number only, unit % dropped from output

Observe how each entry below is paired with its result.
DCEQWWEDCRTSYTCK (listed as Homo sapiens) [FR138] :: 30
VARFYAAAMSGAGPWA (listed as Homo sapiens) [FR225] :: 7
LLVWVAVVGEAQTRI (listed as Homo sapiens) [FR12] :: 7
MTTQLLLLLVWVAVVGEAQ (listed as Homo sapiens) [FR5] :: 17

Return reported Patients Proportion (%) responding; argument: ACKRHFIQDTCLYECS (listed as Homo sapiens) [FR95]
23

---

Listed here are sequences together with their documented Patients Proportion (%) responding.
Tested on: PBMCs (T cells)
assay procedure: 10-day IFN-γ ELIspot for low-frequency T cells
Assay type: cell-based, human
protocol conditions: breast and ovarian cancer patients; 10 μg/mL polypeptide; positive = p<0.05 vs no antigen and >1:100,000
Your answer should be a plain number; it is taken to be in %.

Example cases with answers are listed next.
WHKGWNWTSGFNKCAVGA (listed as Homo sapiens) [FR156] :: 23
PWAAWPFLLSLALMLLWL (listed as Homo sapiens) [FR238] :: 23
RTSYTCKSNWHKGWNWT (listed as Homo sapiens) [FR147] :: 40

Bench note: what Patients Proportion (%) responding did VDQSWRKERVLNVPL (listed as Homo sapiens) [FR120] show?
13
